Where do these numbers come from? They come from ChEMBL document CHEMBL3124759.

Biological target: Neuronal acetylcholine receptor subunit alpha-7 (Rattus norvegicus)
Test: Agonist activity at rat alpha7 nAChR expressed in Xenopus laevis oocytes assessed as stimulation of acetylcholine-induced current at 100 uM by two-electrode voltage clamp electrophysiological analysis relative to acetylcholine
Assay type: cell-based
recorded.metric: Emax
Remember to follow the number with its unit.

Nc1cc(-c2cc([C@H]3C[C@H]4CC[C@H]3N4)cnc2F)ccn1 (racemic) : 10%
CN1CCC[C@H]1c1cccnc1 [NICOTINE] : 43%
c1cnc2cc3c(cc2n1)[C@@H]1CNC[C@H]3C1 [VARENICLINE] : 74%

**Q:** Can you share its Emax? I mean this molecule: Clc1ccc(C2CC3CCC2N3)cn1 (stereo not given) [EPIBATIDINE]
**A:** 150%

**Q:** // Emax lookup, key: Fc1ncc(C2CC3CCC2N3)cc1-c1cccnc1 (racemic)
**A:** 7%

----------
Molecular target: Neuronal acetylcholine receptor; alpha4/beta2 (Rattus norvegicus, UniProt P09483+P12390)
Sequence (P09483 whole entry): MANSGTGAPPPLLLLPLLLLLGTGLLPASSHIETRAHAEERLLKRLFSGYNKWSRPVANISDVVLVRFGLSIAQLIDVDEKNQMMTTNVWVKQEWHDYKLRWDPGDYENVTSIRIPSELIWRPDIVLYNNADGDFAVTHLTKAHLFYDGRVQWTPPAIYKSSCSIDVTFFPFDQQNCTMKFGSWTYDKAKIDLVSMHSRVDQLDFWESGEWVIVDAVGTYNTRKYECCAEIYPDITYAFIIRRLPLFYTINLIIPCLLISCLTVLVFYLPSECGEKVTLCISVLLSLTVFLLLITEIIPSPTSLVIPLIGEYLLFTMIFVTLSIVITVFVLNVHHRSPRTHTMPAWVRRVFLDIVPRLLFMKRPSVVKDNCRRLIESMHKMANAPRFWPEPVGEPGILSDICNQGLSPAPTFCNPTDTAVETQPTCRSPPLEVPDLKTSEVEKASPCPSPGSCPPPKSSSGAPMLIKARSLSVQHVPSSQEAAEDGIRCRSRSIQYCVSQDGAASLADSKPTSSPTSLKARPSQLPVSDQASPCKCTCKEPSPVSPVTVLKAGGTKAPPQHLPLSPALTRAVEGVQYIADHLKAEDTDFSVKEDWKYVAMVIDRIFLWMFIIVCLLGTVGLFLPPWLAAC
Sequence (P12390 whole entry): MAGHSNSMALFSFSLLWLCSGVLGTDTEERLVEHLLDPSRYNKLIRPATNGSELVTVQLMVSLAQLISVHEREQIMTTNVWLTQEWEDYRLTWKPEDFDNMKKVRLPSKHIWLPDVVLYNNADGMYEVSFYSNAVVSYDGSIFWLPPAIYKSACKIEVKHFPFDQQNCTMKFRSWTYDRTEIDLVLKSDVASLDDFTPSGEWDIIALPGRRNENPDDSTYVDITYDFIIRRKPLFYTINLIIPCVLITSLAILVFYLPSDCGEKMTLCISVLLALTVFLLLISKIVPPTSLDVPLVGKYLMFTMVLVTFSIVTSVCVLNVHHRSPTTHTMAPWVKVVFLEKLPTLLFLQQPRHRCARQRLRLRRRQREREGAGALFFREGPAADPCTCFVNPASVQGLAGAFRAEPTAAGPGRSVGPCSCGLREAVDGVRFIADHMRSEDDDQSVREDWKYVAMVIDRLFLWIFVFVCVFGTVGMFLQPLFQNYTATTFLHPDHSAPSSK
Assay: Antagonist activity at rat alpha4beta2 nAChR expressed in Xenopus laevis oocytes assessed as inhibition of acetylcholine-induced current by two-electrode voltage clamp electrophysiological analysis
recorded.metric: pIC50
The read-out pIC50 is expressed as -log10 of concentration in moles per litre.

**Q:** Could you share what pIC50 was measured for c1cnc2cc3c(cc2n1)[C@@H]1CNC[C@H]3C1 [VARENICLINE] , tested on Neuronal acetylcholine receptor; alpha4/beta2 (Rattus norvegicus, UniProt P09483+P12390)?
**A:** 6.70

----------
Below, each entry is listed with its recorded Emax.
Biological target: Neuronal acetylcholine receptor; alpha3/beta4 (Rattus norvegicus) (UniProt P04757+P12392)
Test: Agonist activity at rat alpha3beta4 nAChR expressed in Xenopus laevis oocytes assessed as stimulation of acetylcholine-induced current at 100 uM by two-electrode voltage clamp electrophysiological analysis relative to acetylcholine
Assay type: cell-based
Answer in %, number only, no unit symbol.

Here is how some compounds turned out for Emax.
Clc1ccc(C2CC3CCC2N3)cn1 (centres undefined) [EPIBATIDINE] : 97
CN1CCC[C@H]1c1cccnc1 [NICOTINE] : 37
Fc1ccc(-c2cc([C@H]3C[C@H]4CC[C@H]3N4)cnc2F)cn1 (racemic) : 9

Please turn your attention to the following entry.
**Q:** Query (compound): c1cnc2cc3c(cc2n1)[C@@H]1CNC[C@H]3C1 [VARENICLINE] ; field requested: Emax
**A:** 66
